Origin of measurements: the Human Domainome abundance scans (Beltran et al. 2025)

B1: SH3 and PX domain-containing protein 2B, residues 155 to 209; numbered along this chain, A1X283 (parent)
chain: EQYVVVANYQKQESSEISLSVGQVVDIIEKNESGWWFVSTAEEQGWVPATCLEGQ

Variants of: B1
Assay: abundance fitness (aPCA) (normalised: wild type 0, dead -1); higher = more abundant; growth selection in yeast, the domain comes from the species named
Details: Homo sapiens
Assign 1 whenever abundance fitness does not fall below -0.1; assign 0 whenever it does.

Answered cases to consult:
# bool: abundance fitness of G22Y >= -0.1
0

Is it the case that Q23R has abundance fitness reaching or exceeding -0.1?
0

Given G54L , state whether its abundance fitness is at least -0.1.
1

Identify whether the reported abundance fitness of the following variant is -0.1 or greater: S39T
1

Does the reported abundance fitness for A41E fall at or above the -0.1 mark?
1

Tell me whether abundance fitness is at least -0.1 here: V24N
1

Hi team, for Y9C , is the recorded abundance fitness at or above -0.1?
0

hey, is abundance fitness for this one >= -0.1? V25T
0

Quick check, abundance fitness >= -0.1? Q44S
0

Does the variant E32D have recorded abundance fitness that is -0.1 or more?
1

Next:
Is abundance fitness for N31R at or above -0.1?
1

Decide: is the reported value of abundance fitness for E43M equal to or greater than -0.1?
0

Hi team, for D26C , is the recorded abundance fitness at or above -0.1?
0

Could you tell me if the measured abundance fitness of L19C reaches -0.1 or more?
1

Is reported abundance fitness greater than or equal to -0.1 here: I27G
0

In plain terms: is recorded abundance fitness at least -0.1 for N8Q ?
0

Hi team, for S20L , is the recorded abundance fitness at or above -0.1?
1

Determine whether measured abundance fitness meets or exceeds -0.1 for K11R
1

Assess whether reported abundance fitness for W35T sits at -0.1 or higher.
0

Hi team, for G22V , is the recorded abundance fitness at or above -0.1?
0

Decide: is the reported value of abundance fitness for W35C equal to or greater than -0.1?
1

Hi, just wondering whether W35H shows abundance fitness of -0.1 or higher.
1

Identify whether the reported abundance fitness of the following variant is -0.1 or greater: I27T
0

Is it the case that Q44M has abundance fitness reaching or exceeding -0.1?
0

Could you please find out whether S39K has abundance fitness that meets -0.1 or exceeds it?
1

Dear colleague, could you confirm whether F37I has abundance fitness at or above -0.1?
0

Evaluate S39C : abundance fitness at minimum -0.1?
1

Hello, I need to know if E42D has measured abundance fitness not below -0.1. Thanks!
1

Does E53H have a reported abundance fitness of at least -0.1?
0

Is abundance fitness at least -0.1? Consider T40V
1

Could you verify whether the entry E43P shows abundance fitness of no less than -0.1?
0
